Reported growth AUC by item:
# Tested on: Parabacteroides merdae
# measurement-description: growth AUC relative to DMSO control (median of replicates) (fraction); higher = more growth (less inhibition), active = hit call of the paper
# test-settings: 20 µM; 24 h
Enter the number alone.

growth AUC recorded for this molecule, COC(=O)NCc1cc(/C(C)=N\OCc2cccc(C)n2)ccc1Cl , is 0.947

More entries:
growth AUC recorded for this molecule, CC(C)=NOCCOC(=O)[C@@H](C)Oc1ccc(Oc2cnc3cc(Cl)ccc3n2)cc1 , is 0.955

----------
# Tested on: Roseburia intestinalis
# measurement-description: growth AUC relative to DMSO control (median of replicates) (fraction); higher = more growth (less inhibition), active = hit call of the paper
# test-settings: 20 µM; 24 h
measured-metric: growth AUC
Enter the number alone.

Below are worked cases with known answers.
growth AUC recorded for this compound, O=C1C(Cl)=C(Cl)C(=O)c2ccccc21 , is 1.13

growth AUC recorded for this compound, COP(=O)(OC)SCn1c(=O)oc2cc(Cl)cnc21 , is 1.06

growth AUC recorded for this compound, C[N+]1(C)CCCCC1.[Cl-] , is 0.975

More entries:
growth AUC recorded for this compound, CCC(=O)Nc1ccc(Cl)c(Cl)c1 , is 0.917

growth AUC recorded for this compound, CNC(=O)CSP(=S)(OC)OC , is 0.982

growth AUC recorded for this compound, O=[N+]([O-])c1ccc(O)c([N+](=O)[O-])c1 , is 0.912

growth AUC recorded for this compound, CCOC(=O)C(Cl)Cc1cc(-n2nc(C)n(C(F)F)c2=O)c(F)cc1Cl (stereo unspecified) , is 1.03

growth AUC recorded for this compound, O=C(Nc1ccc(F)cc1F)c1cccnc1Oc1cccc(C(F)(F)F)c1 , is 0.933
